- Tested on: ORYSAT Rice, Tebonnet
- assay: Tolerance of transplanted rice to post-transplant application (Table III)
- Type: in vivo, Oryza sativa
- Set-up: scale not given here
- conditions.used: 0.2500 kg/ha, crop tolerance
measured.parameter: herbicidal effect rating
// return just the number, without any unit appended

Illustrative cases are given below, each with its answer.
[
  {
    "compound": "COC(=O)C(C)Oc1cc(C)c(C)cc1-c1nsc2ccc(-n3c(=O)cc(C(F)(F)F)n(C)c3=O)cc12 (stereo not shown)",
    "tested.system": "ORYSAT Rice, Tebonnet",
    "measured.parameter": "herbicidal effect rating",
    "test.value": 7.0
  },
  {
    "compound": "COC(=O)C(C)Oc1cc(C)ccc1-c1nsc2ccc(-n3c(=O)cc(C(F)(F)F)n(C)c3=O)cc12 (stereo not shown)",
    "tested.system": "ORYSAT Rice, Tebonnet",
    "measured.parameter": "herbicidal effect rating",
    "test.value": 8.0
  },
  {
    "compound": "Cc1cc(O)c(-c2nsc3ccc(-n4c(=O)cc(C(F)(F)F)n(C)c4=O)cc23)cc1C",
    "tested.system": "ORYSAT Rice, Tebonnet",
    "measured.parameter": "herbicidal effect rating",
    "test.value": 3.0
  }
]

Attention now turns to another entry.
Prompt line: Look up herbicidal effect rating of COC(=O)C(C)Oc1ccc(C)cc1-c1nsc2ccc(-n3c(=O)cc(C(F)(F)F)n(C)c3=O)cc12 (stereo not shown) and report it.
Response line: 4.0

Ref: patent US6156700A
